- Tested on: RXRa homodimer (NR concentration 180 nM)
- PROCEDURE TEXT: PBM binding z-score (relative to random genomic background probes); higher = stronger binding; sequences stand for … in GC…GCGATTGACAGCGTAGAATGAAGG
RESULT TYPE: PBM binding z-score
Just the number, please, no unit after it.

// query Output PBM binding z-score of `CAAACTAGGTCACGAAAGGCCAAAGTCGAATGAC`
// result 3.94

// query Output PBM binding z-score of `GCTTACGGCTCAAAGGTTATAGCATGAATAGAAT`
// result 1.93

// query Output PBM binding z-score of `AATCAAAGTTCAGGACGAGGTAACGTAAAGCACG`
// result 2.92

// query Output PBM binding z-score of `CCTACTGGTCCATTCAGAGGTCATTGATCATATG`
// result 3.92

// query Output PBM binding z-score of `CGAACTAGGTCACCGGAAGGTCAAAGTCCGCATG`
// result 6.38

// query Output PBM binding z-score of `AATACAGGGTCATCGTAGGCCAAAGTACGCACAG`
// result 6.87

// query Output PBM binding z-score of `ATCGGAAGGTCGACGAGGTGAGTATACACCGTTT`
// result 2.37

// query Output PBM binding z-score of `CGTCCAAGGTCGGAGAGGTCAGTGAATGCCGAGT`
// result 3.74

// query Output PBM binding z-score of `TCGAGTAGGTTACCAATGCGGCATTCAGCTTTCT`
// result 0.498

// query Output PBM binding z-score of `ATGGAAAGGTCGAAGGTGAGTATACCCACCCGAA`
// result 4.97

// query Output PBM binding z-score of `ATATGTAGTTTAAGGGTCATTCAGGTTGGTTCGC`
// result 4.82

// query Output PBM binding z-score of `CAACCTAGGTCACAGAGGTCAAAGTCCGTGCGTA`
// result 8.52

// query Output PBM binding z-score of `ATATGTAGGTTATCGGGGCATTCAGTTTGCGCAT`
// result 1.25

// query Output PBM binding z-score of `GCAGACAGGTGAAACGCTGGTAACTCAGGGTGGC`
// result 0.612

// query Output PBM binding z-score of `GCTTACCGGTCAAAGGTTATAGCATGAATAGAAT`
// result 5.37

// query Output PBM binding z-score of `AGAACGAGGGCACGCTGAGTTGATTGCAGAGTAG`
// result 1.27

// query Output PBM binding z-score of `CGTCCAAGGTCAATGCTAGGTTAGTGAAAGCATT`
// result 4.75

// query Output PBM binding z-score of `TCGAGTAGGTTACCAATGGGGCATTCGGCTTTCT`
// result 0.335

// query Output PBM binding z-score of `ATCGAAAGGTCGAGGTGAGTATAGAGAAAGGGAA`
// result 4.3

// query Output PBM binding z-score of `GCGACCGGGGCATCAGCAGGTTACCATAACTTAA`
// result 0.943

// query Output PBM binding z-score of `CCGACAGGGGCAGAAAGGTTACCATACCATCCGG`
// result 1.99

// query Output PBM binding z-score of `TAGCCTAGGTCATTGAGGGGCCAGTATAGAAAGC`
// result 2.82

====

Please provide measured PBM binding z-score for the entries that follow.
- Tested on: VDR homodimer (NR concentration 270 nM)
- PROCEDURE TEXT: PBM binding z-score (relative to random genomic background probes); higher = stronger binding; sequences stand for … in GC…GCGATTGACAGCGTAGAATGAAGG

// query Output PBM binding z-score of `TCAGACAGGTGAAGGTAACTCGGGTACGCAGTCG`
// result 0.873

// query Output PBM binding z-score of `TATACAGGGCCAAAGGCCAGAGTACGAATGTCGA`
// result 0.291

// query Output PBM binding z-score of `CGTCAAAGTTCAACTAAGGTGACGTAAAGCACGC`
// result 4.18

// query Output PBM binding z-score of `ACAGACAGCTGATGAAGGTAACTCAGGCTATCAT`
// result 0.0545

// query Output PBM binding z-score of `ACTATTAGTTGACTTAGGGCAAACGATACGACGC`
// result -0.123

// query Output PBM binding z-score of `ATCGAAAGGTCGACGTGAGTATAGAGAAAGGGAA`
// result 0.464

// query Output PBM binding z-score of `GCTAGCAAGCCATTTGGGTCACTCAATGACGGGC`
// result -0.322

// query Output PBM binding z-score of `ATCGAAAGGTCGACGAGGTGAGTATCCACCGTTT`
// result 0.828

// query Output PBM binding z-score of `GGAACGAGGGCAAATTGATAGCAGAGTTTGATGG`
// result 1.31

// query Output PBM binding z-score of `CGAACTAGGTCATTGACAGTACAGTGAATAGTAA`
// result 0.986

// query Output PBM binding z-score of `TCATACAGGTAAACAGGTGAAAGTCCGTAAGTTA`
// result 0.33

// query Output PBM binding z-score of `CCGAGTAGGTTAAGGGGCATTCAGGCAACGGTGA`
// result 0.685

// query Output PBM binding z-score of `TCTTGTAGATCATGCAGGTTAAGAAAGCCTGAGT`
// result 0.115

// query Output PBM binding z-score of `AATACAGGGTCACTAGACCAGAGTAGGTACGAAT`
// result 2.54

// query Output PBM binding z-score of `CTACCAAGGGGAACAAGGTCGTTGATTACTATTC`
// result 2

====

- Test system: THRa homodimer (NR concentration 90 nM)
- PROCEDURE TEXT: PBM binding z-score (relative to random genomic background probes); higher = stronger binding; sequences stand for … in GC…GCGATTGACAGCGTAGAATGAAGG
Please provide measured PBM binding z-score for the entries that follow.
Just the number, please, no unit after it.

// query Output PBM binding z-score of `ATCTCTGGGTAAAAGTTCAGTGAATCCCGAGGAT`
// result -0.0851

// query Output PBM binding z-score of `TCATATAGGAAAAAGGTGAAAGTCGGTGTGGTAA`
// result 0.221

// query Output PBM binding z-score of `TCATATAGGTAACGGTGAAAGTCGAACGATATGA`
// result -0.6

// query Output PBM binding z-score of `ACTTACGGGTCAACGAGGTTATACCACGCGTATA`
// result 1.34

// query Output PBM binding z-score of `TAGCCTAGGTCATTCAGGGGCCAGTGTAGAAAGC`
// result 0.809

// query Output PBM binding z-score of `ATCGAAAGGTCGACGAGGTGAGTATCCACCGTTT`
// result 1.01

// query Output PBM binding z-score of `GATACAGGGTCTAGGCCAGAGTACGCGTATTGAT`
// result -0.824

====

- Test system: PXR:RXRa (NR concentration 270 nM, RXRa partner concentration 90 nM)
- PROCEDURE TEXT: PBM binding z-score (relative to random genomic background probes); higher = stronger binding; sequences stand for … in GC…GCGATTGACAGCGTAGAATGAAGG
RESULT TYPE: PBM binding z-score

// query Output PBM binding z-score of `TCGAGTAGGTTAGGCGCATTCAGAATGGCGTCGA`
// result -0.58

// query Output PBM binding z-score of `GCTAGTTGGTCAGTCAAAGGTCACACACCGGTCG`
// result 5.2

// query Output PBM binding z-score of `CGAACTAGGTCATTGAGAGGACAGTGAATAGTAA`
// result 2.36

// query Output PBM binding z-score of `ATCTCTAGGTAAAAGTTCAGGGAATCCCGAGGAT`
// result 1.96

// query Output PBM binding z-score of `CGAACTAGGTCAGAACAGGACAGTGCAGGATGAT`
// result 0.783

// query Output PBM binding z-score of `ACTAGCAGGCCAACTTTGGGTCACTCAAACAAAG`
// result 0.676

// query Output PBM binding z-score of `AGAACGAGGGCAATGAGTTGATCGCACGGGTGGC`
// result 1.75

// query Output PBM binding z-score of `GCTGCTAGGTCAGGTTGCTCAGCTAACGGGTACG`
// result -0.00315

// query Output PBM binding z-score of `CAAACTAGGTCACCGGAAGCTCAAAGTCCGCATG`
// result 1.9

// query Output PBM binding z-score of `GCTGCTTGGTCAGGTTGGTCAGCTAACGGGTACG`
// result -0.298

// query Output PBM binding z-score of `GCTAGCAGGCCATTTGGGTCACTCTATGACGGGC`
// result 0.138
